Record form. Attribute: dMFI. Fill in for each entry.
# target or system: T1, human IL-12Rβ2 (human, UniProt Q99665 24-862)
# T1 construct: Expressed on HEK293T cells transiently transfected with a pcDNA3 plasmid (Genscript clone OHu21785); also called hIL-12RB2; IL-12 receptor β2 subunit
# T1 sequence: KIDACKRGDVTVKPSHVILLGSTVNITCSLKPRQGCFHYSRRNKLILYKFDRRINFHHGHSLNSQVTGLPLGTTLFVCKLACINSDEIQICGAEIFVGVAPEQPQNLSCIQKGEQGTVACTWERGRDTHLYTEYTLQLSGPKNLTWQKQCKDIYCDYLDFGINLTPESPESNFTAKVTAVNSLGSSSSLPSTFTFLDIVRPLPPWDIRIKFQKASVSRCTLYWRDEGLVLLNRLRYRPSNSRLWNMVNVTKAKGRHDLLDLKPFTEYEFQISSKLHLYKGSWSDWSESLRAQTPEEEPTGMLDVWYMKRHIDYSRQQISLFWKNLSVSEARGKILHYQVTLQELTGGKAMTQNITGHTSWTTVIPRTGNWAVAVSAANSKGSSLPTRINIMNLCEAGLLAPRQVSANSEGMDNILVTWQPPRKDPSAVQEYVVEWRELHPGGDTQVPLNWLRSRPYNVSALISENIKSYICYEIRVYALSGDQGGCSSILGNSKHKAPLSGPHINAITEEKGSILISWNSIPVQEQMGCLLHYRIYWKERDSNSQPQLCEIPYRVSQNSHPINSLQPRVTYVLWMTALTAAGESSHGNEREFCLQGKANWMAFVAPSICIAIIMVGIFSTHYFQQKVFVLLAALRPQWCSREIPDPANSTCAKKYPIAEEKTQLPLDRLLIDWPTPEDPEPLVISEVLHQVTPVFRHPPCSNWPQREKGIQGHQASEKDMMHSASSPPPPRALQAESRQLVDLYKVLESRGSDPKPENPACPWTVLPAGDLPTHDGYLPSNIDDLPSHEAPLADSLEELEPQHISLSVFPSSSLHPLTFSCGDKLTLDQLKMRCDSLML
# method summary: flow cytometry, P.E. on transfected HEK293T cells
# respond with the number and nothing more

For anti-IL-12Rβ2 VHH clone 3CRHM12 (VHH, not shown: small tags and cut ends, periplasmic extract) VHH: QVQLQESGGGSVQAGGSLRLSCAVSGRTVSDYAMGWFRQAPGKEREFVAAMSSSETTVYPNSVKGRITISRDNAKNAVYLQMNALKPEDTAVYYCSMGPIVTFQGLARQNEYHYWGQGTQVTVSS , what is its reported dMFI?
495

Another binder to look at: anti-IL-12Rβ2 VHH clone 3CRH73 (VHH, not shown: small tags and cut ends, periplasmic extract) VHH: QVQLQESGGGLVRAGGSLRLSCAASGHTFSNYVMGWFRQAPGKEREFVAAISWGGSNTYYADSVKGRFTISRDNAKNTVYLQMNSLKVEDTAVYYCAADRRFEGWNYYSMDYWGKGTQVTVSS
918

These measurements were taken from patent US20260209362A1.
